Test system: Cavia porcellus
Assay Remarks: Antiinflammatory activity in depilated albino guinea pig assessed as suppression of UV radiation-induced skin erythema compound administered via gavage measured 2 hrs after UV irradiation exposure
Type: functional
Condition Details: light or radiation study, po, read-out: MED
Listed molecules paired with reported minimal effective dose

- Given Smiles: "O=C(O)Cc1ccc2cc(-c3ccccc3)ccc2c1"
  minimal effective dose: "3.1 mg/kg"
- Given Smiles: "O=C(O)Cc1cc(-c2ccccc2)cc2ccccc12"
  minimal effective dose: "50 mg/kg"
- Given Smiles: "O=C(O)Cc1ccc2cccc(-c3ccccc3)c2c1"
  minimal effective dose: "> 100 mg/kg"
- Given Smiles: "O=C(O)Cc1cccc2c(-c3ccccc3)cccc12"
  minimal effective dose: "0.1 mg/kg"
- Given Smiles: "O=C(O)Cc1ccc2c(-c3ccccc3)cccc2c1"
  minimal effective dose: "3.1 mg/kg"
- Given Smiles: "CCCCC1C(=O)N(c2ccccc2)N(c2ccccc2)C1=O"
  minimal effective dose: "5.3 mg/kg"
- Given Smiles: "O=C(O)Cc1cccc2cc(-c3ccccc3)ccc12"
  minimal effective dose: "25 mg/kg"
- Given Smiles: "O=C(O)Cc1cc(-c2ccccc2)c2ccccc2c1"
  minimal effective dose: "100 mg/kg"
- Given Smiles: "O=C(O)Cc1ccc(-c2ccccc2)c2ccccc12"
  minimal effective dose: "0.1 mg/kg"
- Given Smiles: "O=C(O)Cc1cc2ccccc2cc1-c1ccccc1"
  minimal effective dose: "> 200 mg/kg"
- Given Smiles: "O=C(O)Cc1ccc2ccc(-c3ccccc3)cc2c1"
  minimal effective dose: "> 50 mg/kg"
- Given Smiles: "O=C(O)Cc1c(-c2ccccc2)ccc2ccccc12"
  minimal effective dose: "> 50 mg/kg"

====

pKa overview
Assay Remarks: Dissociation constant, pKa of the compound in DMF-H2O (6.7% v/v) by titration method
Type: physicochemical

- Given Smiles: "O=C(O)Cc1cccc2c(-c3ccccc3)cccc12"
  pKa: 6.7
- Given Smiles: "O=C(O)Cc1cc(-c2ccccc2)cc2ccccc12"
  pKa: 6.7
- Given Smiles: "O=C(O)Cc1ccc(-c2ccccc2)c2ccccc12"
  pKa: 6.8
- Given Smiles: "O=C(O)Cc1cc2ccccc2cc1-c1ccccc1"
  pKa: 7.1
- Given Smiles: "O=C(O)Cc1cccc2ccc(-c3ccccc3)cc12"
  pKa: 6.9
- Given Smiles: "O=C(O)Cc1cc(-c2ccccc2)c2ccccc2c1"
  pKa: 7
- Given Smiles: "O=C(O)Cc1ccc2cc(-c3ccccc3)ccc2c1"
  pKa: 6.6
- Given Smiles: "O=C(O)Cc1c(-c2ccccc2)ccc2ccccc12"
  pKa: 6.9
- Given Smiles: "O=C(O)Cc1ccc2c(-c3ccccc3)cccc2c1"
  pKa: 6.6
- Given Smiles: "O=C(O)Cc1ccc2cccc(-c3ccccc3)c2c1"
  pKa: 6.8
- Given Smiles: "O=C(O)Cc1cccc2cc(-c3ccccc3)ccc12"
  pKa: 6.9
- Given Smiles: "O=C(O)Cc1ccc2ccccc2c1-c1ccccc1"
  pKa: 7.2
- Given Smiles: "O=C(O)Cc1ccc2ccc(-c3ccccc3)cc2c1"
  pKa: 6.7
